// reported Ki per item
Molecular target: aspartyl proteases, in particular, beta-secretase
Assay: Ki of the compounds listed in Tables 1 and 2 (no method described)
Format: biochemical
Conditions: Table 1, compounds of formula Ia, W is -(CH2)n-
API: value field is a number in nM; no unit string.

[
  {
    "structure.notation": "O=C(O)[C@H](CCCCNS(=O)(=O)c1ccc(Br)cc1)NC(=O)C(O)(c1ccccc1)c1ccccc1",
    "unit.spec": "nM",
    "Ki": 54000
  },
  {
    "structure.notation": "CC(C)CN(CCCC[C@H](NC(=O)OCC1c2ccccc2-c2ccccc21)C(=O)O)S(=O)(=O)c1ccc(Br)cc1",
    "unit.spec": "nM",
    "Ki": 2000
  }
]

# next compound below
For COc1ccc(CCC(=O)NCCCC[C@@H](C(=O)O)N(CC(C)C)S(=O)(=O)c2ccc(N)cc2)cc1 , what is its reported Ki? 12.4
